# Hill coefficient listing for each entry below
target: human dopamine transporter (hDAT) (Homo sapiens, UniProt Q01959); experiment: biochemical; type: binding
Sequence (Q01959 whole entry): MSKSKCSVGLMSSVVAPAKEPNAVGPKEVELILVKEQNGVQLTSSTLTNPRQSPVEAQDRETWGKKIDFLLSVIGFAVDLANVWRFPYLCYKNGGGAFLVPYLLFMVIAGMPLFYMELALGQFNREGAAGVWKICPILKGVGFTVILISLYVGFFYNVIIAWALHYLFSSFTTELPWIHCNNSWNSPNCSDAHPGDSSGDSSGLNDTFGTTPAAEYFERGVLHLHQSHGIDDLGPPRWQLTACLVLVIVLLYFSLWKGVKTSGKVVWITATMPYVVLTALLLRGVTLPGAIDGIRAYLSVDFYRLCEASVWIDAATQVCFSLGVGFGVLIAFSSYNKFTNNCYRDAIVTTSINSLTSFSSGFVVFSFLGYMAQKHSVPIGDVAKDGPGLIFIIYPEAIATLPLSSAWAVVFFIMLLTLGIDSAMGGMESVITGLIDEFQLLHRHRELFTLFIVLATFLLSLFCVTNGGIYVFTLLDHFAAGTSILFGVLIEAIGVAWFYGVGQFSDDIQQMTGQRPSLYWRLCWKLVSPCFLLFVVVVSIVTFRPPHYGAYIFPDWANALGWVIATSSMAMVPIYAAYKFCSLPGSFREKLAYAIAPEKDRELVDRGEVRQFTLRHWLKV
measurement-type: Hill coefficient

>>> df
                                   compound  readout_number
0  O=c1[nH]c2ccccc2n1C1CCN(CCCCOC(c2ccc(F)cc2)c2ccc(F)cc2)CC1 [Compound 31649]           −0.63
1  CC(=O)C1(c2ccccc2)CCN(CCCCOC(c2ccc(F)cc2)c2ccc(F)cc2)CC1 [Compound 31525]           −0.61
2  OC1CCCN(CCCCOC(c2ccc(F)cc2)c2ccc(F)cc2)C1 (stereo not shown) [Compound 31650]           −0.82
3  OC1(c2ccc(Cl)cc2)CCN(CCCCOC(c2ccc(F)cc2)c2ccc(F)cc2)CC1 [Compound 31625]           −0.74

====

Recorded pKi by entry
molecular target: human dopamine transporter (hDAT) (Homo sapiens); assay: cell-based
pKi: −log10 of the molar value.
measurement-type: pKi

                                   compound  readout_number
0  Fc1ccc(C(OCCCCN2CCN(c3ccc(F)cc3)CC2)c2ccc(F)cc2)cc1            6.21
1  Fc1ccc(C(OCCCCN2CCN(c3cccc(C(F)(F)F)c3)CC2)c2ccc(F)cc2)cc1            6.42
2  Fc1ccc(C(OCCCCN2CCN(c3ccccc3F)CC2)c2ccc(F)cc2)cc1            6.34
3  Fc1ccc(C(OCCCCN2CCNC(c3ccccc3)C2)c2ccc(F)cc2)cc1 (centres unmarked)            6.26
4  OC1(c2ccccc2)CCN(CCCCOC(c2ccc(F)cc2)c2ccc(F)cc2)CC1            7.02

====

target: human dopamine transporter (hDAT) (Homo sapiens, UniProt Q01959); assay: cell-based; conditions: read-out: Reuptake [3H]DA (Ki ± SD)
measurement-type: Ki

In [3]: df
Out[3]:
                                   compound   result
0  O=C1CN(CCCCOC(c2ccc(F)cc2)c2ccc(F)cc2)CCN1 [Compound 31524]  2290 nM

====

Items are presented alongside their recorded Binding discrimination ratio NET/DAT.
biological target: human dopamine transporter (hDAT) (Homo sapiens, UniProt Q01959); assay: biochemical; format: binding
measurement-type: Binding discrimination ratio NET/DAT

In [3]: df
Out[3]:
                                   compound                              assay_system  readout_number
0  NC(=O)C1CCCN(CCCCOC(c2ccc(F)cc2)c2ccc(F)cc2)C1 (stereo not shown) [Compound 31628]  human dopamine transporter (hDAT) (Homo sapiens, UniProt Q01959)             6.1
1  OC1(c2ccccc2)CCN(CCCCOC(c2ccc(F)cc2)c2ccc(F)cc2)CC1 [Compound 31531]  human dopamine transporter (hDAT) (Homo sapiens, UniProt Q01959)             8.4
2  OC1CCCN(CCCCOC(c2ccc(F)cc2)c2ccc(F)cc2)C1 (stereo not shown) [Compound 31650]  human dopamine transporter (hDAT) (Homo sapiens, UniProt Q01959)             6.7
3  Fc1ccc(C(OCCCCN2CCN(c3ccccc3)CC2)c2ccc(F)cc2)cc1 [Compound 31653]  human dopamine transporter (hDAT) (Homo sapiens, UniProt Q01959)             3.3
4  O=C1c2ccccc2C(=O)N1CCCCN1CCC(O)(c2ccc(Br)cc2)CC1 [Compound 31627]  human dopamine transporter (hDAT) (Homo sapiens, UniProt Q01959)               1
5  Fc1ccc(C(OCCCCN2CCN(c3cccc(C(F)(F)F)c3)CC2)c2ccc(F)cc2)cc1 [Compound 31532]  human dopamine transporter (hDAT) (Homo sapiens, UniProt Q01959)             6.8
6  Fc1ccc(C(OCCCCN2CCN(c3ccc(F)cc3)CC2)c2ccc(F)cc2)cc1 [Compound 31527]  human dopamine transporter (hDAT) (Homo sapiens, UniProt Q01959)             7.8
